system: human recombinant HDAC6 (Homo sapiens, UniProt Q9UBN7)
Construct: purchased Calbiochem 382180
assayOverview: HDAC6 enzyme activity inhibition test (HDAC Fluorometric Drug Discovery Kit)
Assay type: biochemical
experimentalSetup: HDAC6 over HDAC1
measuredParameter: HDAC6 selectivity (fold)

Illustrative cases are given below, each with its answer.
compound	number
O=c1oc(-c2ccc3cccnc3c2)nn1Cc1ccc(-c2nnc(C(F)F)o2)cn1 [Compound 17]	1089
CC(C)N1CCN(c2cccc(-c3nn(Cc4ccc(-c5nnc(C(F)F)o5)cn4)c(=S)o3)c2)CC1 [Compound 76]	945
Cc1nc(-c2nn(Cc3ncc(-c4nnc(C(F)F)o4)cc3F)c(=S)o2)cs1 [Compound 60]	614

(1) CN(C)Cc1cc(-c2nn(Cc3ccc(-c4nnc(C(F)F)o4)cn3)c(=S)o2)cs1 [Compound 131]
(2) O=c1sc(-c2cccc(CN3CCN(C4CCC4)CC3)c2)nn1Cc1ccc(-c2nnc(C(F)F)o2)cn1 [Compound 64]
Given 1 and given 2 , which shows the smaller recorded HDAC6 selectivity (fold)? Write down the label of the entry you select. 2

* * *

system: human recombinant HDAC6 (Homo sapiens, UniProt Q9UBN7)
assayOverview: HDAC6 enzyme activity inhibition test (HDAC Fluorometric Drug Discovery Kit)
experimentalSetup: human recombinant HDAC6; same protocol as HDAC1
measuredParameter: IC50 (nM)

1) O=C1OCC(c2ccccc2)=NN1Cc1ncc(-c2nnc(C(F)F)o2)cc1F 98
2) O=c1oc(-c2cccc(F)c2)cn1Cc1ccc(-c2nnc(C(F)F)o2)cn1 134
3) CN(C)Cc1ccc(-c2nn(Cc3ccc(-c4nnc(C(F)F)o4)cn3)c(=S)o2)s1 78.2
4) CC(=O)N1CC(N2CCC(c3cccc(-c4nn(Cc5ccc(-c6nnc(C(F)F)o6)cn5)c(=O)o4)c3F)CC2)C1 79.9
5) CC(C)N1CCC(c2ccc(-c3nn(Cc4ccc(-c5nnc(C(F)F)o5)cn4)c(=O)s3)cc2)CC1 78.9
6) CC(C)N1CCN(Cc2ccc(-c3nn(Cc4ccc(-c5nnc(C(F)F)o5)cn4)c(=O)o3)cc2)CC1 90.3

(A) CN(C)Cc1ccc(-c2nn(Cc3ccc(-c4nnc(C(F)F)o4)cn3)c(=S)o2)cc1
(B) Cn1ccc2cc(-c3nn(Cc4ccc(-c5nnc(C(F)F)o5)cn4)c(=O)o3)cnc21
Could you please tell me which of these two has the higher IC50: A or B ? Write down the label of the entry you select. B

* * *

system: human recombinant HDAC6 (Homo sapiens, UniProt Q9UBN7)
Construct: purchased Calbiochem 382180
Sequence (Q9UBN7 1-1215): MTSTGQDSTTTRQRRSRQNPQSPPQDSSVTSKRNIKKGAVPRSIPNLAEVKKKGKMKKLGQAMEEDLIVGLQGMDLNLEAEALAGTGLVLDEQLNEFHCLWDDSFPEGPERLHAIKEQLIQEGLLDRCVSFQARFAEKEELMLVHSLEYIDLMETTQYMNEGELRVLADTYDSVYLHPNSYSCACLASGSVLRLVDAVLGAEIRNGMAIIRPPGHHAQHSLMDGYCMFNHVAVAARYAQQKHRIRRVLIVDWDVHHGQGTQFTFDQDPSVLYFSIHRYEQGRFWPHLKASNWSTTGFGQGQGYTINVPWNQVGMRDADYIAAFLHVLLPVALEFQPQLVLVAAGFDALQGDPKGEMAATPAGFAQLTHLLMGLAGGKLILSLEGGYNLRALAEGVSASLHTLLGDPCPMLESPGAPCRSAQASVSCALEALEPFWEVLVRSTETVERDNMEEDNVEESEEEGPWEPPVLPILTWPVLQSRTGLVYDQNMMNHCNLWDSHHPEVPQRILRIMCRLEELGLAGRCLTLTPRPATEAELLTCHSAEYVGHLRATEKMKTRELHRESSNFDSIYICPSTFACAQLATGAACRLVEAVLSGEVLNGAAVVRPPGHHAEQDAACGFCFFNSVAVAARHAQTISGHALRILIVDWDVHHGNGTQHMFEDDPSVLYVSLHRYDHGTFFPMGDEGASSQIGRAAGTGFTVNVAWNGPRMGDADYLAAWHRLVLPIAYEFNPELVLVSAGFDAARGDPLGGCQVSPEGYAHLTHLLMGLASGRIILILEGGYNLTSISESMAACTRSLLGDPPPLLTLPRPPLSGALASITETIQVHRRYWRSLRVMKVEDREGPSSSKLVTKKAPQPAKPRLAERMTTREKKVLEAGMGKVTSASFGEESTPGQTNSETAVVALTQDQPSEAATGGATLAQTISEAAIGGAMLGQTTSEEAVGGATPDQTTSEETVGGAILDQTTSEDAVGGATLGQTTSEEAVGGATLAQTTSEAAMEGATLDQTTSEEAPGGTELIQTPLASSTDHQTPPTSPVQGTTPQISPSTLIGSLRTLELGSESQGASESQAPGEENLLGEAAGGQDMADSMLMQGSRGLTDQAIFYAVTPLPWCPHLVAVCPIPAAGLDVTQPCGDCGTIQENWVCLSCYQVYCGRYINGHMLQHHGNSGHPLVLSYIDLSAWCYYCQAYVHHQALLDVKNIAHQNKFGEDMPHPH
assayOverview: HDAC6 enzyme activity inhibition test (HDAC Fluorometric Drug Discovery Kit)
Type: biochemical
experimentalSetup: HDAC6 over HDAC1
measuredParameter: HDAC6 selectivity (fold)

Illustrative cases are given below, each with its answer.
compound	system	valueUnit	HDAC6 selectivity (fold)
Cc1ncc(-c2nn(Cc3ncc(-c4nnc(C(F)F)o4)cc3F)c(=S)o2)s1 [Compound 61]	human recombinant HDAC6 (Homo sapiens, UniProt Q9UBN7)	fold	540
Fc1cc(-c2nnc(C(F)F)o2)cnc1Cn1nc(-c2ccc(CN3CC[C@@H](F)C3)cc2)oc1=S [Compound 113]	human recombinant HDAC6 (Homo sapiens, UniProt Q9UBN7)	fold	778

(1) CCN(CC)Cc1ccc(-c2nn(Cc3ccc(-c4nnc(C(F)F)o4)cn3)c(=S)o2)s1 [Compound 122]
(2) CN(C)Cc1ccc(-c2nn(Cc3ccc(-c4nnc(C(F)F)o4)cn3)c(=S)o2)cc1 [Compound 91]
(3) Cn1c(-c2ccccc2)cn(Cc2ccc(-c3nnc(C(F)F)o3)cn2)c1=O [Compound 144]
(4) CC(C)N1CCN(c2cccc(-c3nn(Cc4ccc(-c5nnc(C(F)F)o5)cn4)c(=O)o3)n2)CC1 [Compound 6]
(5) Fc1cc(-c2nnc(C(F)F)o2)cnc1Cn1nc(-c2ccc(CN3CCC3)s2)oc1=S [Compound 130]
Output the entries ranked by HDAC6 selectivity (fold) from maximum down to minimum. Quick reminder: the answer is the labels in the order asked. 2, 4, 5, 1, 3
(2: 1832 fold, 4: 1078 fold, 5: 750 fold, 1: 453 fold, 3: 185 fold)
